Biological target: human vasopressin V1a receptor subtype (Homo sapiens, UniProt P37288)
Construct: host or cells: CHO cells (pZeoSV vector for the Thibonnier line)
Sequence (P37288 whole entry): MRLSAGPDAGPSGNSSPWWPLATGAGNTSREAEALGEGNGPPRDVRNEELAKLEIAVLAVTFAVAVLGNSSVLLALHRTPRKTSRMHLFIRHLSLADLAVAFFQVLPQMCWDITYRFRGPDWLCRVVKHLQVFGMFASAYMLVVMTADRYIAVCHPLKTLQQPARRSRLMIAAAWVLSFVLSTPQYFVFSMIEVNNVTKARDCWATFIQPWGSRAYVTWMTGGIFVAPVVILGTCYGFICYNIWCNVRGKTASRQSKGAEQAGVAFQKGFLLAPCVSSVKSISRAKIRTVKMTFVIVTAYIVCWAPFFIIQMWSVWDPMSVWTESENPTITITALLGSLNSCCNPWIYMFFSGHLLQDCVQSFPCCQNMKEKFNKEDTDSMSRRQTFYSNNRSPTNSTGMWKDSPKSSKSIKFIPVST
Test: Vasopressin binding in Chinese Hamster Ovary cell membranes expressing human vasopressin V1a subtype receptors
Conditions: 100 nM, CHO cell membranes, [3H]Manning ligand, values without parentheses
Please go through the items and note down their inhibition at 0.1 µM.
Give bare numbers, in %.

Consider the worked cases shown below.
COc1ccccc1-c1ccc(C(=O)N2Cc3ccc(C(=O)NCCCN(C)C)n3Cc3ccccc32)cc1OC | 4
Cc1ccccc1-c1ccc(C(=O)N2Cc3ccc(C(=O)N(C)CCCN(C)C)n3Cc3ccccc32)cc1C | 75
COc1cccc(-c2cc(OC)c(C(=O)N3Cc4ccc(C(=O)N5CCN(C(C)C)CC5)n4Cc4ccccc43)cc2Cl)c1 | 2
Cc1ccccc1-c1ccc(C(=O)N2Cc3ccc(C(=O)N4CCN(CCN5CCOCC5)CC4)n3Cc3ccccc32)cc1C | 45
COc1cc(C(=O)N2Cc3ccc(C(=O)N(C)C4CCN(C)C4)n3Cc3ccccc32)ccc1-c1cccc2ccccc12 (stereo not shown) | 31
COc1cccc(-c2cc(OC)c(C(=O)N3Cc4ccc(C(=O)N5CCC(N6CCCCC6)CC5)n4Cc4ccccc43)cc2Cl)c1 | -3
COc1cccc(-c2cc(OC)c(C(=O)N3Cc4ccc(C(=O)NCCC5CCCN5C)n4Cc4ccccc43)cc2Cl)c1 (stereo not shown) | 9
C=CCN1CCN(C(=O)c2ccc3n2Cc2ccccc2N(C(=O)c2ccc(-c4cccc(OC)c4)c(OC)c2)C3)CC1 | 22

Please give inhibition at 0.1 µM, item by item, for the list that follows.
1. Cc1cc(C(=O)N2Cc3ccc(C(=O)NCCN4CCCCC4)n3Cc3ccccc32)ccc1-c1ccccc1C(F)(F)F
2. COc1cc(C(=O)N2Cc3ccc(C(=O)NCCCn4ccnc4)n3Cc3ccccc32)ccc1-c1ccccc1C
3. Cc1cc(C(=O)N2Cc3ccc(C(=O)N[C@@H](Cc4c[nH]cn4)C(N)=O)n3Cc3ccccc32)ccc1-c1ccccc1C(F)(F)F
4. CN(C)CCCNC(=O)c1ccc2n1Cc1ccccc1N(C(=O)c1ccc(-c3cccc4ccccc34)cc1Cl)C2
5. Cc1ccccc1-c1ccc(C(=O)N2Cc3ccc(C(=O)N4CCCN(C)CC4)n3Cc3ccccc32)cc1

Result block:
[8, 18, 0, 8, 40]
